# TGT: recombinant human SIRPα-His V2 (human, UniProt P78324 31-370)
# Sequence (P78324 other isoform, or with tags, fused parts or gaps): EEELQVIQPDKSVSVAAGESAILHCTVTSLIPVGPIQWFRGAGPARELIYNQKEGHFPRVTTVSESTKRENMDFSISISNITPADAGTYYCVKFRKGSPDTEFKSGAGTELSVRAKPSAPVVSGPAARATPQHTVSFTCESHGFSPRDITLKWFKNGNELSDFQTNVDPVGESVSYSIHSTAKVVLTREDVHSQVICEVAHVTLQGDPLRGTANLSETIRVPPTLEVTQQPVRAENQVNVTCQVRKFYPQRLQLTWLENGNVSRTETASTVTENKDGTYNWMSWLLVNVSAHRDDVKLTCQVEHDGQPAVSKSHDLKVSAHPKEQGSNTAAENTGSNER
# PROCEDURE DETAILS: Biacore
OBSERVED PROPERTY: Kd (nM)
Could you give me the number in nM? Just the number is fine.

Any idea what Kd was measured for 53.21A9.B11 (antibody, V domains shown) VH: QVQLQESGPGLVKPSETLSLTCTVSGGSVSSGRYYWSWIRQPPGKGLEWIGYIYYSGSTNYNPSLKSRVTISVDTSKNQFSLKLTSVTAADTAVYYCARAYDWNYFFDYWGQGTLVTVSS VL: DIVMTQSPLSLPVTPGEPASISCRSSQSLLYSNGYNYLEWYLQKPGQSPQLLIYLGSNRASGVPDRFSGSGSGTDFTLQISRVEAEDVGVYYCMQGLQTPITFGQGTRLEIK ?
67.6

Where do the numbers come from? From patent US20260234283A1.
